- assay-info: Probe fluorescence ratio response to linolenic acid relative to ADIFAB2
- Type: binding
- details: response relative to ADIFAB2
Measured DR/DR LNA, listed per entry.
Response field accepts a number only; no unit should be typed.

Exam item: Looking for the measured DR/DR LNA of 68C, 72A (protein, listed as Rattus norvegicus, PEPTIDE (1)...(131) wild-type rat intestinal fatty acid binding protein) AFDGTWKVDRNENYEKFMEKMGINVVKRKLGAHDNLKLTITQEGNKFTVKESSNFRNIDVVFELGVDCAYSAADGTELTGTWTMEGNKLVGKFKRVDNGKELIAVREISGNELIQTYTYEGVEAKRIFKKE , can you help?
Marked response: 0.25

Exam item: Looking for the measured DR/DR LNA of 23R3, 72A (protein, listed as Rattus norvegicus, PEPTIDE (1)...(131) wild-type rat intestinal fatty acid binding protein) AFDGTWKVDRNENYEKFMEKMGRNVVKRKLGAHDNLKLTITQEGNKFTVKESSNFRNIDVVFELGVDFAYSAADGTELTGTWTMEGNKLVGKFKRVDNGKELIAVREISGNELIQTYTYEGVEAKRIFKKE , can you help?
Marked response: 0.14

Exam item: Looking for the measured DR/DR LNA of 106N, 72A (protein, listed as Rattus norvegicus, PEPTIDE (1)...(131) wild-type rat intestinal fatty acid binding protein) AFDGTWKVDRNENYEKFMEKMGINVVKRKLGAHDNLKLTITQEGNKFTVKESSNFRNIDVVFELGVDFAYSAADGTELTGTWTMEGNKLVGKFKRVDNGKELIAVNEISGNELIQTYTYEGVEAKRIFKKE , can you help?
Marked response: 0.445
